For each entry below, report its selectivity ratio value.
- Measurement Description: Selectivity index, ratio of IC50 for rat L6 cells to IC50 for Trypanosoma brucei rhodesiense STIB900
- Assay type: toxicity, cell-based
- Condition Description: read-out: Ratio IC50

Return the recorded selectivity ratio value; entry: CC(C)NC(=N)c1cccc(-n2cc(-c3cc(C(=N)NC(C)C)ccc3O)nn2)c1
> 16

Return the recorded selectivity ratio value; entry: CC(C)NC(=N)c1ccc(-n2cc(-c3cccc(C(=N)NC(C)C)c3)nn2)cc1
> 353

Return the recorded selectivity ratio value; entry: N=C(N)c1ccc(-c2cn(-c3cc(C(=N)N)ccc3O)nn2)cc1
> 31

Return the recorded selectivity ratio value; entry: CC(C)NC(=N)c1ccc(-n2cc(-c3cc(C(=N)NC(C)C)ccc3O)nn2)cc1.Cl
> 1540

Return the recorded selectivity ratio value; entry: Cl.Cl.N=C(N)c1ccc(-n2cc(-c3cccc(C(=N)N)c3)nn2)cc1
1080

Return the recorded selectivity ratio value; entry: Oc1ccc(C2=NCCN2)cc1-n1cc(-c2ccc(C3=NCCN3)cc2)nn1
> 9

Return the recorded selectivity ratio value; entry: Oc1cc(C2=NCCN2)ccc1-c1cn(-c2cccc(C3=NCCN3)c2)nn1
> 302

Return the recorded selectivity ratio value; entry: Cl.Cl.N=C(N)c1ccc(-c2cn(-c3ccc(C(=N)N)cc3)nn2)cc1
2020

Return the recorded selectivity ratio value; entry: COc1ccc(C(=N)N)cc1-n1cc(-c2cccc(C(=N)N)c2)nn1.Cl.Cl
> 4770

Return the recorded selectivity ratio value; entry: Oc1cc(C2=NCCN2)ccc1-n1cc(-c2cccc(C3=NCCN3)c2)nn1
> 17

FYI, the data here is from ChEMBL document CHEMBL1156777.
